target: IP3K-KD (human IP3K-KD A isoform, residues 187–461) (Homo sapiens); construct: human IP3K-KD A isoform (residues 187–461); GST (cleaved yes); made in house; host or cells: Escherichia coli BL21 star (DE3); assay: Fluorescence thermal shift analysis (Tycho NT.6, inflection temperature Ti); type: binding; settings: source data of Fig. 6c, N 3
Field: Transition 1 Ti Mean. Provide a value for each of the molecules that follow.

O=P(O)(O)O[C@@H]1[C@@H](O)[C@@H](O)[C@@H](OP(=O)(O)O)[C@H](OP(=O)(O)O)[C@H]1O [2-s, D-myo-inositol 1,4,6-trisphosphate] = 53.1
O=P(O)(O)OC[C@@H]1O[C@H](CO)[C@@H](OP(=O)(O)O)[C@H](OP(=O)(O)O)[C@H]1O = 49.7
O=P(O)(O)O[C@@H]1[C@@H](O)[C@H](OP(=O)(O)O)C[C@@H](O)[C@H]1OP(=O)(O)O = 52.0

Now look at this one.
Prompt: I would be grateful if you could share the reported Transition 1 Ti Mean for O=P(O)(O)O[C@@H]1[C@H](O)[C@@H](O)[C@@H](OP(=O)(O)O)[C@H](OP(=O)(O)O)[C@H]1O [4-s, L-chiro-inositol 2,3,5-trisphosphate] .
Response: 51.7

* * *

Field: ΔTi, transition 1. Provide a value for each of the compounds that follow.
molecular target: IP3K-KD (human IP3K-KD A isoform, residues 187–461) (Homo sapiens, UniProt P23677); construct: human IP3K-KD A isoform (residues 187–461); GST (cleaved yes); made in house; host or cells: Escherichia coli BL21 star (DE3); assay: Fluorescence thermal shift analysis (Tycho NT.6, inflection temperature Ti); format: binding; details: Ti minus Ti of apo IP3K-KD (44.4); mean ± SD, n=3
Sequence (P23677 187-461): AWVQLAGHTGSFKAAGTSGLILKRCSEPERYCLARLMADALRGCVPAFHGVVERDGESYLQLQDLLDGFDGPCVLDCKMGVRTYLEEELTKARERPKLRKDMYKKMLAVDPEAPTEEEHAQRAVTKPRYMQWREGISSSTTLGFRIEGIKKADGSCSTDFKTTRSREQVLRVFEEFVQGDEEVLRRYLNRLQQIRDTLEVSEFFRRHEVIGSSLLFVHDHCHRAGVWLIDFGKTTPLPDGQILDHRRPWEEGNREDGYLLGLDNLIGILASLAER

O=P(O)(O)O[C@@H]1[C@@H](O)[C@H](OP(=O)(O)O)C[C@@H](O)[C@H]1OP(=O)(O)O [3-s] = 7.6 ± 0.3 ºC
O=P(O)(O)O[C@@H]1[C@H](O)[C@@H](O)[C@@H](OP(=O)(O)O)[C@H](OP(=O)(O)O)[C@H]1O [4-s, L-chiro-inositol 2,3,5-trisphosphate] = 7.3 ± 0.3 ºC
O=P(O)(O)O[C@@H]1[C@@H](O)[C@@H](O)[C@@H](OP(=O)(O)O)[C@H](OP(=O)(O)O)[C@H]1O [2-s, D-myo-inositol 1,4,6-trisphosphate] = 8.7 ± 0.4 ºC

Return reported ΔTi, transition 1 values for all items listed beneath this line.
1. O=P(O)(O)O[C@@H]1[C@@H](O)[C@H](OP(=O)(O)O)[C@@H](OP(=O)(O)O)[C@H](OP(=O)(O)O)[C@H]1O [1-p]
2. O=P(O)(O)OC[C@@H]1O[C@H](CO)[C@@H](OP(=O)(O)O)[C@H](OP(=O)(O)O)[C@H]1O [7a–s]

Response:
1: 10.3 ± 0.3 ºC; 2: 5.3 ± 0.5 ºC

Return reported ΔTi, transition 1 values for all items listed beneath this line.
1. O=P(O)(O)O[C@@H]1[C@H](O)[C@H](O)[C@@H](OP(=O)(O)O)[C@H](OP(=O)(O)O)[C@H]1O [InsP3, D-myo-inositol 1,4,5-trisphosphate, reference compound]
2. O=P(O)(O)O[C@H]1O[C@H](CO)[C@@H](OP(=O)(O)O)[C@H](OP(=O)(O)O)[C@H]1O [6b–s, α-D-glucopyranosyl 1,3,4-trisphosphate]
3. O=P(O)(O)OC[C@H]1O[C@H](CO)[C@@H](OP(=O)(O)O)[C@H](OP(=O)(O)O)[C@H]1O [7b–s]
4. CO[C@@H]1O[C@H](CO)[C@@H](O[C@H]2[C@H](O)[C@H](O)[C@@H](OP(=O)(O)O)[C@H](OP(=O)(O)O)[C@H]2O)[C@H]1OP(=O)(O)O [compound 9, D-chiro-inositol ribophostin]
5. O=P(O)(O)O[C@H]1[C@H](O)[C@@H](OP(=O)(O)O)[C@H](OP(=O)(O)O)[C@@H](OP(=O)(O)O)[C@H]1O [InsP4, D-myo-inositol 1,3,4,5-tetrakisphosphate, reference compound]
6. O=P(O)(O)O[C@@H]1[C@@H](O)[C@H](CO)[C@@H](OP(=O)(O)O)[C@H](OP(=O)(O)O)[C@H]1O (racemic) [5-s]
7. O=P(O)(O)OCC1C(O)C(OP(=O)(O)O)C(O)C(OP(=O)(O)O)C1OP(=O)(O)O (racemic) [5-p]
8. CO[C@@H]1O[C@H](CO)[C@@H](O[C@H]2O[C@H](CO)[C@@H](OP(=O)(O)O)[C@H](OP(=O)(O)O)[C@H]2O)[C@H]1OP(=O)(O)O [compound 8, ribophostin]

Response:
1. 8.5 ± 0.3 ºC
2. 1.3 ± 0.6 ºC
3. 1.2 ± 0.7 ºC
4. 0.1 ± 0.5 ºC
5. 9.1 ± 0.4 ºC
6. 6.9 ± 0.4 ºC
7. 7.7 ± 0.3 ºC
8. -0.2 ± 0.3 ºC

Return reported ΔTi, transition 1 values for all items listed beneath this line.
1. O=P(O)(O)O[C@@H]1[C@@H](O)[C@H](O)[C@@H](OP(=O)(O)O)[C@H](OP(=O)(O)O)[C@H]1O [1-s, L-scyllo-inositol 1,2,4-trisphosphate]
2. O=P(O)(O)O[C@@H]1O[C@H](CO)[C@@H](OP(=O)(O)O)[C@H](OP(=O)(O)O)[C@H]1O [6a–s, β-D-glucopyranosyl 1,3,4-trisphosphate]

Response:
1. 11.2 ± 0.3 ºC
2. 7.1 ± 0.3 ºC

* * *

molecular target: IP3K-KD (human IP3K-KD A isoform, residues 187–461) (Homo sapiens); construct: human IP3K-KD A isoform (residues 187–461); GST (cleaved yes); made in house; host or cells: Escherichia coli BL21 star (DE3); assay: Fluorescence thermal shift analysis (Tycho NT.6, inflection temperature Ti); assay type: binding; details: source data of Fig. 6c, N 3
Field: Transition 1 Dti (Ti-Ti Apo). Provide a value for each of the compounds that follow.
One number for each entry.

Study these solved cases before continuing.
O=P(O)(O)O[C@H]1[C@H](O)[C@@H](OP(=O)(O)O)[C@H](OP(=O)(O)O)[C@@H](OP(=O)(O)O)[C@H]1O [InsP4, D-myo-inositol 1,3,4,5-tetrakisphosphate, reference compound] = 9.1
O=P(O)(O)O[C@@H]1[C@H](O)[C@@H](O)[C@@H](OP(=O)(O)O)[C@H](OP(=O)(O)O)[C@H]1O [4-s, L-chiro-inositol 2,3,5-trisphosphate] = 7.3
O=P(O)(O)O[C@@H]1[C@@H](O)[C@@H](O)[C@@H](OP(=O)(O)O)[C@H](OP(=O)(O)O)[C@H]1O [2-s, D-myo-inositol 1,4,6-trisphosphate] = 8.7
O=P(O)(O)O[C@H]1O[C@H](CO)[C@@H](OP(=O)(O)O)[C@H](OP(=O)(O)O)[C@H]1O [6b–s, α-D-glucopyranosyl 1,3,4-trisphosphate] = 1.3
O=P(O)(O)O[C@@H]1O[C@H](CO)[C@@H](OP(=O)(O)O)[C@H](OP(=O)(O)O)[C@H]1O [6a–s, β-D-glucopyranosyl 1,3,4-trisphosphate] = 7.1
O=P(O)(O)OC[C@@H]1O[C@H](CO)[C@@H](OP(=O)(O)O)[C@H](OP(=O)(O)O)[C@H]1O = 5.3
O=P(O)(O)O[C@@H]1[C@@H](O)[C@H](O)[C@@H](OP(=O)(O)O)[C@H](OP(=O)(O)O)[C@H]1O [1-s, L-scyllo-inositol 1,2,4-trisphosphate] = 11.2
O=P(O)(O)O[C@@H]1[C@@H](O)[C@H](OP(=O)(O)O)[C@@H](OP(=O)(O)O)[C@H](OP(=O)(O)O)[C@H]1O = 10.3
CO[C@@H]1O[C@H](CO)[C@@H](O[C@H]2O[C@H](CO)[C@@H](OP(=O)(O)O)[C@H](OP(=O)(O)O)[C@H]2O)[C@H]1OP(=O)(O)O = -0.167
O=P(O)(O)O[C@@H]1[C@@H](O)[C@H](CO)[C@@H](OP(=O)(O)O)[C@H](OP(=O)(O)O)[C@H]1O (racemic) = 6.9

Return reported Transition 1 Dti (Ti-Ti Apo) values for all items listed beneath this line.
1. O=P(O)(O)O[C@@H]1[C@@H](O)[C@H](OP(=O)(O)O)C[C@@H](O)[C@H]1OP(=O)(O)O
2. O=P(O)(O)OC[C@H]1O[C@H](CO)[C@@H](OP(=O)(O)O)[C@H](OP(=O)(O)O)[C@H]1O

Response:
7.6
1.2

* * *

target: IP3K-KD (human IP3K-KD A isoform, residues 187–461) (Homo sapiens, UniProt P23677); construct: human IP3K-KD A isoform (residues 187–461); GST (cleaved yes); assay: Ligand displacement assay: fluorescence polarization (anisotropy) of 2-FITC-InsP3/IP3K-KD complex; conditions: estimated Ki (Kd) from IC50 with [2-FITC-InsP3] 2 nM and its Kd 68 nM; read-out: Kd inferred from IC50 (Cheng and Prusoff)
assayReadout: Kd (nM)
Answers are plain numbers, in nM.

Return reported Kd values for all items listed beneath this line.
1. O=P(O)(O)OCC1C(O)C(OP(=O)(O)O)C(O)C(OP(=O)(O)O)C1OP(=O)(O)O (racemic) [5-p]
2. O=P(O)(O)O[C@H]1[C@H](O)[C@@H](OP(=O)(O)O)[C@H](OP(=O)(O)O)[C@@H](OP(=O)(O)O)[C@H]1O [InsP4, D-myo-inositol 1,3,4,5-tetrakisphosphate, reference compound]

Response:
850
58

Prompt: I would be grateful if you could share the reported Kd for O=P(O)(O)OC[C@@H]1O[C@H](CO)[C@@H](OP(=O)(O)O)[C@H](OP(=O)(O)O)[C@H]1O [7a–s] .
Response: 637

meta.source: paper PMC10876669
